- TARGET UNDER TEST: Delta-type opioid receptor (Rattus norvegicus)
- Sequence (P33533 whole entry): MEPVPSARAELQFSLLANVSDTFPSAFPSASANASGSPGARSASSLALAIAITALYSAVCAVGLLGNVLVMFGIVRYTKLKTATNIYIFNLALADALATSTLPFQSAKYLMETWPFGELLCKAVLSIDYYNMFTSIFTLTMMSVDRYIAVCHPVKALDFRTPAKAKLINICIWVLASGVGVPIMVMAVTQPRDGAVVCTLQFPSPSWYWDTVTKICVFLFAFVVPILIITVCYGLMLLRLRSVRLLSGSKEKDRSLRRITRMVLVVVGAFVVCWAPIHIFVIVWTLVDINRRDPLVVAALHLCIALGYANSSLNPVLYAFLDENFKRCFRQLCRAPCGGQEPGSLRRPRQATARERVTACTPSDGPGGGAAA
- ASSAY INFO: Inhibitory activity measured against [3H]DPDPE (Opioid receptor delta 1 ligand) in rat brain using radioreceptor binding assays.
- Type: tissue-based
READOUT NAME: IC50 (nM)
Write down the numeric answer in nM and omit the unit.

Example entries begin here.
COMPOUND	VALUE
C[C@H](c1ccc([N+](=O)[O-])cc1)[C@H]1NC(=O)CNC(=O)[C@@H](NC(=O)[C@@H](N)Cc2ccc(O)cc2)C(C)(C)SSC(C)(C)[C@@H](C(=O)O)NC1=O (stereo in doubt; 6)	6.89
C[C@@H](c1ccc([N+](=O)[O-])cc1)[C@H]1NC(=O)CNC(=O)[C@H](NC(=O)[C@@H](N)Cc2ccc(O)cc2)C(C)(C)SSC(C)(C)[C@H](C(=O)O)NC1=O	222
C[C@H](c1ccc([N+](=O)[O-])cc1)[C@H]1NC(=O)CNC(=O)[C@@H](NC(=O)[C@@H](N)Cc2ccc(O)cc2)C(C)(C)SSC(C)(C)[C@@H](C(=O)O)NC1=O (stereo in doubt; 7)	226

Now consider a different compound.
Input C[C@H](c1ccc([N+](=O)[O-])cc1)[C@@H]1NC(=O)CNC(=O)[C@H](NC(=O)[C@@H](N)Cc2ccc(O)cc2)C(C)(C)SSC(C)(C)[C@H](C(=O)O)NC1=O . Output IC50: 4.2

###

- TARGET UNDER TEST: Mu-type opioid receptor (Cavia porcellus, UniProt P97266)
- Sequence (P97266 whole entry): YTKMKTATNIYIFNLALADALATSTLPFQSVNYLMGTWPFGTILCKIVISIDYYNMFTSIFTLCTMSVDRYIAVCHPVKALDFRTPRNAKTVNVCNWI
Listing of entries alongside the reported IC50.
Write down the numeric answer in µM and omit the unit.

Example entries begin here.
COMPOUND	VALUE UNITS	IC50
C[C@@H](c1ccc([N+](=O)[O-])cc1)[C@H]1NC(=O)CNC(=O)[C@H](NC(=O)[C@@H](N)Cc2ccc(O)cc2)C(C)(C)SSC(C)(C)[C@H](C(=O)O)NC1=O	µM	12.3
C[C@H](c1ccc([N+](=O)[O-])cc1)[C@@H]1NC(=O)CNC(=O)[C@H](NC(=O)[C@@H](N)Cc2ccc(O)cc2)C(C)(C)SSC(C)(C)[C@H](C(=O)O)NC1=O	µM	2.7

Now consider a different compound.
Input C[C@H](c1ccc([N+](=O)[O-])cc1)[C@H]1NC(=O)CNC(=O)[C@@H](NC(=O)[C@@H](N)Cc2ccc(O)cc2)C(C)(C)SSC(C)(C)[C@@H](C(=O)O)NC1=O (stereo in doubt; 6) . Output IC50: 25.7

###

Listing of entries alongside the reported IC50.
- TARGET UNDER TEST: Delta-type opioid receptor (Mus musculus, UniProt P32300)
- Sequence (P32300 whole entry): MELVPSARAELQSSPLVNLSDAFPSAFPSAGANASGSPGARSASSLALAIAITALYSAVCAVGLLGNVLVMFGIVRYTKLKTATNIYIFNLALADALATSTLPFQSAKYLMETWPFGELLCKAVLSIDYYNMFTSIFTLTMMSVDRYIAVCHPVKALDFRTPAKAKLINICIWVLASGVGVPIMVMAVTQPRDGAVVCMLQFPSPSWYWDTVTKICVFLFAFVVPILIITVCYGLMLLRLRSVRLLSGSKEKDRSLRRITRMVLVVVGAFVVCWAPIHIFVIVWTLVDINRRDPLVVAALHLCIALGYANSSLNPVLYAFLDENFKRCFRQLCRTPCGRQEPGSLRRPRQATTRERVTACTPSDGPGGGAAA
- ASSAY INFO: Inhibitory activity measured against Opioid receptor delta 1 using mouse vas deference assay (MVD).
Write down the numeric answer in µM and omit the unit.

Example entries begin here.
COMPOUND	TARGET UNDER TEST	IC50 (µM)
C[C@H](c1ccc([N+](=O)[O-])cc1)[C@H]1NC(=O)CNC(=O)[C@@H](NC(=O)[C@@H](N)Cc2ccc(O)cc2)C(C)(C)SSC(C)(C)[C@@H](C(=O)O)NC1=O (stereo in doubt; 7)	Delta-type opioid receptor (Mus musculus, UniProt P32300)	0.63
C[C@@H](c1ccc([N+](=O)[O-])cc1)[C@H]1NC(=O)CNC(=O)[C@H](NC(=O)[C@@H](N)Cc2ccc(O)cc2)C(C)(C)SSC(C)(C)[C@H](C(=O)O)NC1=O	Delta-type opioid receptor (Mus musculus, UniProt P32300)	1.79
C[C@H](c1ccc([N+](=O)[O-])cc1)[C@@H]1NC(=O)CNC(=O)[C@H](NC(=O)[C@@H](N)Cc2ccc(O)cc2)C(C)(C)SSC(C)(C)[C@H](C(=O)O)NC1=O	Delta-type opioid receptor (Mus musculus, UniProt P32300)	0.027

Now consider a different compound.
Input C[C@H](c1ccc([N+](=O)[O-])cc1)[C@H]1NC(=O)CNC(=O)[C@@H](NC(=O)[C@@H](N)Cc2ccc(O)cc2)C(C)(C)SSC(C)(C)[C@@H](C(=O)O)NC1=O (stereo in doubt; 6) . Output IC50: 0.00459
